Each entry below carries its recorded FITC+ (%).
Target: T1, HER2 on the surface of HER2+ cancer cells (BT474, SKOV-3) (human, UniProt P04626 23-1255)
T1 construct: whole, on cells; also called human epidermal growth factor receptor 2
Test: flow cytometry on SKOV-3 cells (HER2+), 100 nM binding sites
Answer in %, number only, no unit symbol.

F4 anti-HER2 VHH (VHH) VHH: QVQLQESGGGLVQAGGSLKLSCAASGRTLSAYVVGWFRQAPGKERESVAAIGWSSRSPYYPDSVKGRFTISEDNTKNTVYLQMNSLKPDDTAVYYCAADSYPRRWDRESDFGSWGQGTQVTVSS = 93.3
A1 anti-HER2 VHH (VHH, Llama VHH expressed in WK6 E. coli with C-terminal c-myc and His tags; also called A1 clone) VHH: QVQLQESGGGLVQPGGSLRLSCAASGHTLSTYVVAWFRQAPGKERESVAAIGWSSRSPYYPDSVKGRFTISEDNTKNTVYLQMNSLKPDDTAVYYCAADSYPRRWDRESDFGSWGQGTQVTVSS = 94.1

Data request: Field request: FITC+ (%) | item: D6 anti-HER2 VHH (VHH) VHH: QVQLQESGGGLVQAGGSLTLSCAASGRTFSTYVVGWFRQAPGKERESVAAIGWASNSPYYADSVKGRFTISRDNTKNTVYLQMKSLKPDDTAVYYCAADSYPRRWDRESDFGSWGQGTQVTVSS
Data returned: 94.6

Data request: Field request: FITC+ (%) | item: F2 anti-HER2 VHH (VHH) VHH: QVQLQESGGGLVQAGGSLKLSCAASGRTLSAYVVGWFRQAPGRERESVAAIGWSTHSVYYADSVKGRFTISRDNTENTVYLQMNSLKPDDTAVYYCAADSSPRRWDRESDFGSWGQGTQVTVSS
Data returned: 93.1
